# Experiment Notes: GC/MS of blood plasma sample: number of times of freezing and thawing (Table C)
# Assay type: physicochemical, human
# Measurement Parameters: different from individual to individual, individuals with increase, relative to 1 at 2 times, freezing and thawing 6 times
Test Readout: Rate of increase or decrease (first value, increase)
Quick one: just the number, no unit, thanks!

The examples below pair each entry with its known result.
Query: Requested field: Rate of increase or decrease (first value, increase). Item: O=c1[nH]c(=O)c2[nH]cnc2[nH]1 [Xanthine]
Result: 2.21

Query: For the compound shown here, CCCCCCCCCCCCCCCCCCO [Octadecanol] , give the reported Rate of increase or decrease (first value, increase).
Result: 1.63

Query: For the compound Nc1cc[nH]c(=O)n1 [Cytosine] , what Rate of increase or decrease (first value, increase) is on record?
Result: 1.93

Query: Could you tell me which Rate of increase or decrease (first value, increase) is on file for O=C[C@H](O)[C@H](O)[C@H](O)CO [Ribose] ?
Result: 1.39

Query: I am curious: what Rate of increase or decrease (first value, increase) value has been reported for O=c1ccn([C@H]2C[C@H](O)[C@@H](CO)O2)c(=O)[nH]1 [2′-Deoxyuridine] ?
Result: 1.43

Moving on to another compound below.
Query: Name the reported Rate of increase or decrease (first value, increase) value associated with the compound CC(=O)N[C@@H](CO)C(=O)O [N-acetylserine]
Result: 1.39

====

# Experiment Notes: GC/MS of blood plasma sample: time from blood collection to cooling of blood (Table B)
# Format: physicochemical, human
# Measurement Parameters: detection intensity, blood collection to cooling 5 minutes or more vs 1 minute or less
Test Readout: Increase or decrease

Query: Report Increase or decrease for "NCCS(=O)O" please.
Result: Increase

Query: I have this compound here, O=C1CCNC(=O)N1 [Dihydrouracil] , and I need its recorded Increase or decrease.
Result: Increase

Query: Need Increase or decrease, item "O=C[C@H](O)[C@H](O)[C@H](O)CO"
Result: Increase

Query: // query Increase or decrease value for entry "O=C(O)C(=O)O"
Result: Increase

Query: Which measured Increase or decrease value corresponds to CC(C)CC(O)C(=O)O (centres unmarked) [2-Hydroxyisocaproic acid] ?
Result: Increase

New cases:
Query: What Increase or decrease value was documented for this compound, "O=C(CO)[C@H](O)[C@H](O)CO" ?
Result: Increase

====

# Experiment Notes: LC/MS of serum sample: number of times of freezing and thawing (Table M)
# Type: physicochemical, human
# Design: key: detection intensity relative to 1 at 2 freeze-thaw cycles
# Measurement Parameters: 6 times of freezing and thawing; detection intensity relative to 1 at 2 times
Test Readout: Rate of increase or decrease
API note: the answer field is a bare number with no unit suffix.

Some entries whose results are on file:
Query: Can you share its Rate of increase or decrease? I mean this compound: "CC(C)C[C@H](N)C(=O)O"
Result: 0.66

Query: What value of measured Rate of increase or decrease is listed for "N[C@@H](CCS)C(=O)O" ?
Result: 1.30

Query: Param item = O=C(O)[C@@H]1CC(O)CN1 (stereo partly drawn) [4-Hydroxyproline] ; retrieve measured Rate of increase or decrease.
Result: 0.66

Below: the item to evaluate.
Query: Field request: Rate of increase or decrease | item: "CSCC[C@H](N)C(=O)O"
Result: 0.69
